- target entity: Aux2LS20-His6 (p57) (Bacillus subtilis plasmid pLS20cat)
- Sequence: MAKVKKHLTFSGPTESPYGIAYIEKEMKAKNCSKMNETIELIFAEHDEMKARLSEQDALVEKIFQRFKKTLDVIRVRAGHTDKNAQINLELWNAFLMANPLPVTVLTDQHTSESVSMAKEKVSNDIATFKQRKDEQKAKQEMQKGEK
- measurement protocol: EMSA
- assay conditions: EMSA: 20 mM Tris-HCl pH 8, 1 mM EDTA, 5 mM MgCl2, 0.5 mM DTT, 100 mM KCl, 10% glycerol, 0.05 mg/ml BSA; 20 min 30°C then 10 min on ice; 2% agarose, 0.5x TBE …
assay readout: binding

CGGCATTTGTTAACGCTCCTTTTCATCGATTTCTGCACATTACTTTGCAACGATCTGTTCAAATAAGTGTTTCTTTTTCCAAGGCTTTTTGCGGCAGCAAAAAGCCGGCCCCCGATTCCGAAGGAAGGAGGGGGTGGAAAAGGAAAGAGCATAAGGGGAAACTGGCACCATTTGCATGGTGAAACCGCAGTGCGGTTTGT (double strand) [F30]    no binding
TGAGAAAGTCCTGCCTTCCTCGCTTTATCCGCAAGCCTATTCATTGTATCTTTTGAAAGACCTTTGATGTTGAGATCCGGCATTTGTTAACGCTCCTTTTCATCGATTTCTGCACATTACTTTGCAACGATCTGTTCAAATAAGTGTTTCTTTTTCCAAGGCTTTTTGCGGCAGCAAAAAGCCGGCCCCCGATTCCGAAGG (double strand) [F33]    no binding

###

- target entity: Aux2LS20-His6 (p57) (Bacillus subtilis plasmid pLS20cat)
- Sequence: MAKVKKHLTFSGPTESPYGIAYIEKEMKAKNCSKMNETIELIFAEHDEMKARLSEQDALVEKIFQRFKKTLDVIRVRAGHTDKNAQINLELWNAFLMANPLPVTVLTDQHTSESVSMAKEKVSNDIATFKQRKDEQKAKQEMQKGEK
- measurement protocol: EMSA
- assay conditions: EMSA: 20 mM Tris-HCl pH 8, 1 mM EDTA, 5 mM MgCl2, 0.5 mM DTT, 100 mM KCl, 10% glycerol, 0.05 mg/ml BSA; 20 min 30°C then 10 min on ice; 2% agarose, 0.5x TBE …
assay readout: binding

ATGGTGAAACCGCAGTGCGGTTTGTTTTTTCGTGGTACCAGATTTATTGCTGAATGCACATAAAAAAAACATTTATGTTCAACCATTATTTAGGTGATTTAGAACTAAATGCACATAAATCTTTATTTTATGCACACGAAAAATAACTGTTTTCCATACAGAAATTTAGTCTTCGATGACGAGATTGCTCTTTCTTTTCT (double strand) [F23]    binds
CAGTTATTTTTCGTGTGCATAAAATAAAGATTTATGTGCATTTAGTTCTAAATCACCTAAATAATGGTTGAACATAAATGTTTTTTTTATGTGCATTCAGCAATAAATCTGGTACCACGAAAAAACAAACCGCACTGCGGTTTCACCATGCAAATGGTGCCAGTTTCCCCTTATGCTCTTTCCTTTTCCACCCCCTCCTTC (double strand) [F25]    binds

###

- Tested on: Aux1LS20-His6 (p56) (Bacillus subtilis plasmid pLS20cat), ORF:1a040432
- Sequence: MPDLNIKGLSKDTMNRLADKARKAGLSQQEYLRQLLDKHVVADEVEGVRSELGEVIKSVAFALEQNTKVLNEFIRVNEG
- measurement protocol: EMSA
- assay conditions: EMSA: 20 mM Tris-HCl pH 8, 1 mM EDTA, 5 mM MgCl2, 0.5 mM DTT, 100 mM KCl, 10% glycerol, 0.05 mg/ml BSA; 20 min 30°C then 10 min on ice; 2% agarose, 0.5x TBE …
assay readout: binding

AAATCACCTAAATAATGGTTGAACATAAATGTTTTTTTTATGTGCATTCAGCAATAAATCTGGTACCACGAAAAAACAAACCGCACTGCGGTTTCACCATGCAAATGGTGCCAGTTTCCCCTTATGCTCTTTCCTTTTCCACCCCCTCCTTCCTTCGGAATCGGGGGCCGGCTTTTTGCTGCCGCAAAAAGCCTTGGAAA (double strand) [F27]    binds
TAAATGTTTTTTTTATGTGCATTCAGCAATAAATCTGGTACCACGAAAAAACAAACCGCACTGCGGTTTCACCATGCAAATGGTGCCAGTTTCCCCTTATGCTCTTTCCTTTTCCACCCCCTCCTTCCTTCGGAATCGGGGGCCGGCTTTTTGCTGCCGCAAAAAGCCTTGGAAAAAGAAACACTTATTTGAACAGATCG (double strand) [F28]    binds
CGAAGACTAAATTTCTGTATGGAAAACAGTTATTTTTCGTGTGCATAAAATAAAGATTTATGTGCATTTAGTTCTAAATCACCTAAATAATGGTTGAACATAAATGTTTTTTTTATGTGCATTCAGCAATAAATCTGGTACCACGAAAAAACAAACCGCACTGCGGTTTCACCATGCAAATGGTGCCAGTTTCCCCTTAT (double strand) [F24]    binds

###

- target entity: Aux2LS20-His6 (p57) (Bacillus subtilis plasmid pLS20cat) (UniProt E9RJ22)
- Sequence: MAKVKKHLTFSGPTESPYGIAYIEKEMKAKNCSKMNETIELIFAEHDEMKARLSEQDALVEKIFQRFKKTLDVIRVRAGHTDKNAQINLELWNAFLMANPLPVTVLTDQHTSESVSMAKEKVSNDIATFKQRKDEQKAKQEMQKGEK
- measurement protocol: EMSA
- assay conditions: EMSA: 20 mM Tris-HCl pH 8, 1 mM EDTA, 5 mM MgCl2, 0.5 mM DTT, 100 mM KCl, 10% glycerol, 0.05 mg/ml BSA; 20 min 30°C then 10 min on ice; 2% agarose, 0.5x TBE …
assay readout: binding

TTTTTCGTGGTACCAGATTTATTGCTGAATGCACATAAAAAAAACATTTATGTTCAACCATTATTTAGGTGATTTAGAACTAAATGCACATAAATCTTTATTTTATGCACACGAAAAATAACTGTTTTCCATACAGAAATTTAGTCTTCGATGACGAGATTGCTCTTTCTTTTCTTCAATAATTCATTCCGTTTTTCAAG (double strand) [F22]    binds
GCTCTTTCCTTTTCCACCCCCTCCTTCCTTCGGAATCGGGGGCCGGCTTTTTGCTGCCGCAAAAAGCCTTGGAAAAAGAAACACTTATTTGAACAGATCGTTGCAAAGTAATGTGCAGAAATCGATGAAAAGGAGCGTTAACAAATGCCGGATCTCAACATCAAAGGTCTTTCAAAAGATACAATGAATAGGCTTGCGGA (double strand) [F32]    no binding
CATCGATTTCTGCACATTACTTTGCAACGATCTGTTCAAATAAGTGTTTCTTTTTCCAAGGCTTTTTGCGGCAGCAAAAAGCCGGCCCCCGATTCCGAAGGAAGGAGGGGGTGGAAAAGGAAAGAGCATAAGGGGAAACTGGCACCATTTGCATGGTGAAACCGCAGTGCGGTTTGTTTTTTCGTGGTACCAGATTTATTG (double strand) [F29]    no binding

###

- target entity: Aux2LS20-His6 (p57) (Bacillus subtilis plasmid pLS20cat)
- Sequence: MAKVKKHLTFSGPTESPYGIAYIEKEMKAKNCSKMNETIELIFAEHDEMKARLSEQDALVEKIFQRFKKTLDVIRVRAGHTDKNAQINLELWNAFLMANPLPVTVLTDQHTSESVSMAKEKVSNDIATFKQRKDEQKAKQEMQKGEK
- measurement protocol: EMSA
- assay conditions: EMSA: 20 mM Tris-HCl pH 8, 1 mM EDTA, 5 mM MgCl2, 0.5 mM DTT, 100 mM KCl, 10% glycerol, 0.05 mg/ml BSA; 20 min 30°C then 10 min on ice; 2% agarose, 0.5x TBE …
assay readout: binding

Some sequences with recorded binding:
TAAATGTTTTTTTTATGTGCATTCAGCAATAAATCTGGTACCACGAAAAAACAAACCGCACTGCGGTTTCACCATGCAAATGGTGCCAGTTTCCCCTTATGCTCTTTCCTTTTCCACCCCCTCCTTCCTTCGGAATCGGGGGCCGGCTTTTTGCTGCCGCAAAAAGCCTTGGAAAAAGAAACACTTATTTGAACAGATCG (double strand) [F28]    binds more weakly
AAATCACCTAAATAATGGTTGAACATAAATGTTTTTTTTATGTGCATTCAGCAATAAATCTGGTACCACGAAAAAACAAACCGCACTGCGGTTTCACCATGCAAATGGTGCCAGTTTCCCCTTATGCTCTTTCCTTTTCCACCCCCTCCTTCCTTCGGAATCGGGGGCCGGCTTTTTGCTGCCGCAAAAAGCCTTGGAAA (double strand) [F27]    binds more weakly
ACGAGCAAAGAAATGCTAGGTGAACTTGAAAAACGGAATGAATTATTGAAGAAAAGAAAGAGCAATCTCGTCATCGAAGACTAAATTTCTGTATGGAAAACAGTTATTTTTCGTGTGCATAAAATAAAGATTTATGTGCATTTAGTTCTAAATCACCTAAATAATGGTTGAACATAAATGTTTTTTTTATGTGCATTCAGC (double strand) [F21]    binds
TAAAGATTTATGTGCATTTAGTTCTAAATCACCTAAATAATGGTTGAACATAAATGTTTTTTTTATGTGCATTCAGCAATAAATCTGGTACCACGAAAAAACAAACCGCACTGCGGTTTCACCATGCAAATGGTGCCAGTTTCCCCTTATGCTCTTTCCTTTTCCACCCCCTCCTTCCTTCGGAATCGGGGGCCGGCTTT (double strand) [F26]    binds more weakly

Now consider the entry below.
input: Check the records and state binding for CGAAGACTAAATTTCTGTATGGAAAACAGTTATTTTTCGTGTGCATAAAATAAAGATTTATGTGCATTTAGTTCTAAATCACCTAAATAATGGTTGAACATAAATGTTTTTTTTATGTGCATTCAGCAATAAATCTGGTACCACGAAAAAACAAACCGCACTGCGGTTTCACCATGCAAATGGTGCCAGTTTCCCCTTAT (double strand) [F24]
output: binds
